Here the recorded growth inhibition is given for each entry.
- experiment notes: inhibition of 3D7 malaria parasite growth – strain 3D7 (AID 2306);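 note: 0% = DMSO wells and 100% = chloroquine plus artemisinin control wells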
- cond: P. falciparum 3D7 erythrocytic growth, LDH absorbance, 72 h; at 2 µM; hits give high values
Record the value in %, omitting the unit from your answer.

INSERT INTO results (molecule, recorded_measurement) VALUES
  ('Cc1nc2nc(N)nc(N)c2c(C)c1Cc1ccccc1Cl', 93),
  ('CN(c1ccc2c(c1)nc(Nc1ccc(Cl)cc1)n2C)c1ccnc(Nc2ccc(CS(C)(=O)=O)cc2)n1', 97),
  ('Nc1ccc2c(N)c3ccccc3nc2c1', 93),
  ('COc1c(Br)cc(Br)cc1C(C)=O', 95),
  ('CC[C@H]1CN(Cc2ccccc2Br)CC[C@H]1CCCc1ccnc2ccc(O)cc12', 86),
  ('COc1ccc(OC(C)CNC(=O)c2cc([N+](=O)[O-])ccc2-c2ccc(OC)cc2)cc1 (stereo not given)', 92);

# ---- query molecule ----
# input Please give the measured growth inhibition for this molecule: `CC(=O)Nc1ccc(CN2CCC(NC(=O)c3ccc(-c4cccc(OC(C)C)c4)s3)CC2)cc1`
# output 89
